Target: T1, mIL1RAcP-Fc (murine, UniProt Q61730 21-359)
T1 construct: also called P013_04; P013-04
T1 sequence (looked up): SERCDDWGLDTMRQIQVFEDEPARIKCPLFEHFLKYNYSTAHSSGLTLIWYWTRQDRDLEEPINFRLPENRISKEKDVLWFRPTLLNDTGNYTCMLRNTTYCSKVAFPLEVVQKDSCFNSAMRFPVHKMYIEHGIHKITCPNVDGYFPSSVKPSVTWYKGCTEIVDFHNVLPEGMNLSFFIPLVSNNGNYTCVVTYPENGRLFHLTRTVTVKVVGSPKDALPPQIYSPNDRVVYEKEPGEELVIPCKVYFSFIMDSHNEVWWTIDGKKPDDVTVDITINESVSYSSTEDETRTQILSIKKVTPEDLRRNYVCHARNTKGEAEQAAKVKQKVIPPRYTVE
Assay: ELISA, primary supernatant, coated mu-IL-1RAcP-Fc
reported.property: mu-IL1RaP ELISA (OD)
Record the value in OD, omitting the unit from your answer.

Consider the following illustrative entries.
- binder: "P013.S.02.B.G03 (antibody, V domains shown, rabbit monoclonal antibody; also called P013.A.00014.D07) VH: QSVEESGGRLVTPGTPLTLTCTVSGFSLSSYGMIWVRQAPGEGLEWIGFIGRGGATWYASWVKGRFTISKTSTTVDLKITSPTASDTATYFCARDGDSSDYYAFNLWGQGTLVTVSS VL: DVVMTQTPASVSEPVGGTVTIKCQASQNIGSNLAWYQQRSGQPPKLLIYGASTLASGVPSRFSGSGSGTEFTLTISGVQSADAATYFCQCSGYDITGVFPFGGGSEVVVK"
  mu-IL1RaP ELISA (OD): 1.1
- binder: "P013.S.02.B.B03 (antibody, V domains shown, rabbit monoclonal antibody; also called P013.A.00045.F11) VH: QEQLEESGGDLVKPEGSLTLTCTASGFSFSSNYWICWVRQAPGKGLELIACIYTSTGNTWYASWAKGRFTISKTSSTTVTLQMTSLTVADTATYFCARDLLVVTSFNLWGQGTLVTVSS VL: ALVMTQTPSPVSAAVGGTVTINCQASEDIYSNLAWFQQKPGQPPKLLIYGASTLASGVPSRFSGSGSGTEFTLTISGVQSDDAATYYCLGVCTDISTDDLYNAFGGGTELVVK"
  mu-IL1RaP ELISA (OD): -0.1
- binder: "P013.S.01.B.C06 (antibody, V domains shown, rabbit monoclonal antibody; also called P013.A.00014.D06) VH: QSVEESGGRLVTPGGSLTLTCTVSGFSLSIYAMGWFRQAPGKGLEWIGDIYAGSGSTWYASWAKGRFTISKTSTTVDLKITSPTTEDTATYFCAREIDAGYVGYGFNLWGQGTLVTVSS VL: AQALTQTPSSVSAAVGGTVTINCQSSQSVYSDYLAWYQQKPGQPPKLLIYQASKLATGVPSRFKGSGSGTQFTLTISGVQSDDAATYYCQATYYGSGWYRAFGGGTELVVK"
  mu-IL1RaP ELISA (OD): -0.1
- binder: "P013.S.02.B.E02 (antibody, V domains shown, rabbit monoclonal antibody; also called P013.A.00087.E09) VH: QSVEESGGRLVTPGTPLTLTCTVSGFSLNVYNMGWVRQAPGKGLEYIGIISSSGTTYYASWAKGRFTISKTSSTTVDLKITSLTTEDTATYFCARADGYTEGDYATYFNLWGQGTLVTVSS VL: DIVMTQTPASVSEPVGGTVTIKCQASQSITTWLAWYQQKPGQPPKLLIYQASALASGVSSRFIGSGYGTEFTLTISGVQSEDAATYYCQCTYGIGSGSSYGVAFGGGTEVVVK"
  mu-IL1RaP ELISA (OD): 0
- binder: "P013.S.01.B.H05 (antibody, V domains shown, rabbit monoclonal antibody; also called P013.A.00109.F08) VH: LEQSGGGAEGGLVKPGGSLELCCKASGFSLSNSYWICWVRQAPGKGLEWIGCIYVGSSGSTYYASWVNGRFTLSRDIDQSTGCLQLNSLTAADTAIYYCARDGATSTSGHLFELWGQGTLVTVSS VL: ALVMTQTPSPVSAAVGGTVTINCQASEDIYSNLAWFQQKPGQPPKLLIYRASTLASGVPSRFSGSGSGTEFTLTISGVQSDDAATYYCLGIYTYISADGSLYNAFGGGTEVVVK"
  mu-IL1RaP ELISA (OD): 0.4

Assign mu-IL1RaP ELISA (OD) to the following record: P013.S.01.B.H06 (antibody, V domains shown, rabbit monoclonal antibody; also called P013.A.00086.B03) VH: LEQSGGGGEGGLVKPGGSLELCCKASGFSLSSSYWICWVRQAPGKGLEWIGCIYVGSSGSTYYASWVSGRFTLSRDIDQSTGCLQLNSLTAADTAMYYCARDIYGSTNGYDLWGQGTLVTVSS VL: ALVMTQTPSPVSAAVGGTVTINCQASEDIYSNLAWFQQKPGQPPKLLIYQASKLASGVPSRFSGSGSGTEFTLTISGLQSDDVATYYCLGVGTYISGDGSLDNAFGGGTEVVVK
0

// fetch mu-IL1RaP ELISA (OD) given entry P013.S.02.B.F04 (antibody, V domains shown, rabbit monoclonal antibody; also called P013.A.00109.B02) VH: QEQLVESGGDLVKPEGSLTLTCTASGFSFSSNYWICWVRQAPGKGLEWIACIYTSTDTTYYPNWAKGRFTISKTSSTTVTLQMTSLTAADTATYFCARDLLVVTSFNLWGQGTLVTVSS VL: ALVMTQTPSPVSAAVGGTVTINCQASEDIYSNLAWFQQKPGQPPKLLIYGASTLASGVPSRFSGSGSGTEFTLTISGVQSDDAATYYCLGVCTDISADDLYNTFGGGTEVVVK
0

Name the recorded mu-IL1RaP ELISA (OD) of the binder listed here: P013.S.01.B.F06 (antibody, V domains shown, rabbit monoclonal antibody; also called P013.A.00045.E09) VH: QSVEESGGRLVTPGTPLTLTCTVSGIDLSSDAVGWVRQAPGKGLEYIGIIVSSGETFYASWARGRCTISKTSSTTVDLRITRLTTEDTATYFCARGGPGYSFDTEYAFDPWGPGTLVTVSS VL: AFEMTQTPASVEVAVGGTVTINCQASQSIGSWLSWYQQKVGQRPKLLISRASTLASGVPSRFKGSGSGTEYTLTISGVQSDDAATFYCQQGATTYDVDNVFGGGTEVVVR
3.4

Tell me measured mu-IL1RaP ELISA (OD) for P013.S.02.B.G01 (antibody, V domains shown, rabbit monoclonal antibody; also called P013.A.00015.G07) VH: QSVEESGGRLVTPGGSLTLTCKVSGFSLSDYDIYWVRQAPGKGLEWIGVIDIENSVYYPTWAKGRFTISKTSTTVDLKITSPTTEDTATYFCARGDYIMTLDLWGQGTLVTVSS VL: AAVLTQTPSPVSAAVGGTVTISCQASQSVYKNNRLAWYQQKPGQPPKLLIYLASTLASGVPSRFKGSGSGTQFTLTISDLESDDAATYYCAGGYSTISENAFGGGTEVVVK please.
0.4

# return recorded mu-IL1RaP ELISA (OD) for entry P013.S.01.B.C03 (antibody, V domains shown, rabbit monoclonal antibody; also called P013.A.00133.D11) VH: QSVEESGGRLVTPGTPLTLTCTVSGIDLSNYAMSWVRQAPGKGLEWIGSVISGGSTYYATWARGRFTISKSSTTVDLKMTSLTTEDTATYFCARGCPGYNGDKYTFDLWGPGTLVTVSS VL: AFEMTQTPSSVSEPVGGTVTIKCQASQSIYNYLSWYQQKPGQRPKLLIYRASTLASGVPSRFKGSGSGTEFTLTISGVESADAATYYCQQGATSYDIENPFGGGTEVVVK
2.3
